Ki: recorded values
- system: UniProt Q00987
- Sequence (Q00987 1-125): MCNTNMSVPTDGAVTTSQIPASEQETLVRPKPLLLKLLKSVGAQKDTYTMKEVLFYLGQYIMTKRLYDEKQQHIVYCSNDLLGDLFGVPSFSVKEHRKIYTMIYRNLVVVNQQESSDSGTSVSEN
- method.notes: Competitive fluorescence polarization assay for MDM2
- Type: binding
- stated.conditions: competitive FP assay, MDM2; read-out: Ki (MDM2)
Where a SMILES comes first, the peptide text is derived from it. Bridges are numbered along the chain shown (N, C = ends). [ ]: non-standard residue; d: D form. R8 = C=CCCCCCC[C@@](C)(N)C(=O)O; Cha = N[C@@H](CC1CCCCC1)C(=O)O; Cba = N[C@@H](CC1CCC1)C(=O)O; S5 = C=CCCC[C@](C)(N)C(=O)O; Nle = CCCC[C@H](N)C(=O)O; Aib = CC(C)(N)C(=O)O

Study these solved cases before continuing.
[
  {
    "compound": "CC(=O)N[C@@H](CC(C)C)C(=O)N[C@H](C(=O)N[C@@H](Cc1ccccc1)C(=O)N[C@]1(C)CCCCCCC=CCCC[C@@](C)(C(=O)N[C@@H](CO)C(=O)N[C@@H](C)C(=O)N[C@@H](C)C(N)=O)NC(=O)[C@H](CC2CCC2)NC(=O)[C@H](CCC(N)=O)NC(=O)[C@H](C)NC(=O)[C@H](Cc2c[nH]c3ccccc23)NC(=O)[C@H](Cc2ccc(O)cc2)NC(=O)[C@H](C)NC1=O)[C@@H](C)O [compound 255] (Ac-LTF[R8]AYWAQ[Cba][S5]SAA-NH2; staple 4-11)",
    "system": "UniProt Q00987",
    "result": "< 10 nM"
  },
  {
    "compound": "CC(=O)N[C@@H](Cc1ccccc1)C(=O)N[C@]1(C)CCCCCCC=CCCC[C@@](C)(C(=O)N[C@@H](CCCNC(=N)N)C(=O)N[C@@H](CCCNC(=N)N)C(=O)N[C@@H](CC(=O)O)C(=O)N[C@@H](CC2CCCCC2)C(N)=O)NC(=O)[C@H](CC(C)C)NC(=O)[C@H](CCC(N)=O)NC(=O)[C@H](Cc2c[nH]cn2)NC(=O)[C@H](Cc2c[nH]c3ccccc23)NC(=O)[C@H](Cc2c[nH]cn2)NC(=O)[C@H](Cc2c[nH]cn2)NC1=O [compound 30] (Ac-F[R8]HHWHQL[S5]RRD[Cha]-NH2; staple 2-9)",
    "system": "UniProt Q00987",
    "result": "10 to 100 nM"
  },
  {
    "compound": "CC(=O)N[C@@H](C)C(=O)N[C@@H](CC(C)C)C(=O)N[C@H](C(=O)N[C@@H](Cc1ccccc1)C(=O)N[C@]1(C)CCCCCCC=CCCC[C@@](C)(C(=O)N[C@@H](CO)C(=O)N[C@@H](C)C(=O)N[C@@H](C)C(N)=O)NC(=O)[C@H](CC2CCC2)NC(=O)[C@H](CCC(N)=O)NC(=O)[C@H](C)NC(=O)[C@H](Cc2c[nH]c3ccccc23)NC(=O)[C@H](Cc2ccc(O)cc2)NC(=O)[C@H](CCC(=O)O)NC1=O)[C@@H](C)O (single isomer, unassigned)",
    "system": "UniProt Q00987",
    "result": "< 10 nM"
  },
  {
    "compound": "CC[C@H](C)[C@H](NC(=O)[C@H](C)NC(=O)[C@H](CO)NC(=O)[C@]1(C)CCCC=CCCCCCC[C@@](C)(NC(=O)[C@H](Cc2ccccc2)NC(=O)[C@@H](NC(=O)[C@H](CC(C)C)NC(C)=O)[C@@H](C)O)C(=O)N[C@@H](C)C(=O)N[C@@H](Cc2ccc(O)cc2)C(=O)N[C@@H](Cc2c[nH]c3ccccc23)C(=O)N[C@@H](C)C(=O)N[C@@H](CCC(N)=O)C(=O)N[C@@H](CC(C)C)C(=O)N1)C(N)=O [compound 8] (Ac-LTF[R8]AYWAQL[S5]SAI-NH2; staple 4-11)",
    "system": "UniProt Q00987",
    "result": "10 to 100 nM"
  }
]

Fill in: Ki of CC(=O)N[C@@H](C)C(=O)N[C@@H](CC(C)C)C(=O)N[C@H](C(=O)N[C@@H](Cc1ccccc1)C(=O)N[C@]1(C)CCCCCCC=CCCC[C@@](C)(C(=O)N[C@@H](CO)C(=O)N[C@@H](C)C(=O)N[C@@H](C)C(=O)N[C@@H](C)C(N)=O)NC(=O)[C@H](CC2CCC2)NC(=O)[C@H](CCC(N)=O)NC(=O)[C@H](C)NC(=O)[C@H](Cc2c[nH]c3ccccc23)NC(=O)[C@H](Cc2ccc(O)cc2)NC(=O)[C@H](CCC(=O)O)NC1=O)[C@@H](C)O is ___
< 10 nM

Field request: Ki | item: CC(=O)N[C@@H](Cc1ccccc1)C(=O)N[C@]1(C)CCCCCCC=CCCC[C@@](C)(C(=O)N[C@@H](Cc2c[nH]cn2)C(=O)NC(C)(C)C(=O)N[C@@H](C)C(=O)N[C@H](C)C(N)=O)NC(=O)[C@H](CC(C)C)NC(=O)[C@H](CCC(N)=O)NC(=O)[C@H](Cc2ccc(O)cc2)NC(=O)[C@H](Cc2c[nH]c3ccccc23)NC(=O)[C@H](Cc2ccc(O)cc2)NC(=O)[C@H](C)NC1=O [compound 42] (Ac-F[R8]AYWYQL[S5]H[Aib]A[dA]-NH2; staple 2-9)
10 to 100 nM

If you can, please state the reported Ki value of CCCC[C@H](NC(=O)[C@H](C)NC(=O)[C@H](C)NC(=O)[C@]1(C)CCCC=CCCCCCC[C@@](C)(NC(=O)[C@H](Cc2ccccc2)NC(=O)[C@H](C)NC(=O)[C@H](C)NC(C)=O)C(=O)N[C@@H](CCC(=O)O)C(=O)N[C@@H](Cc2ccc(O)cc2)C(=O)N[C@@H](Cc2c[nH]c3ccccc23)C(=O)N[C@@H](C)C(=O)N[C@@H](CCC(N)=O)C(=O)N[C@@H](CC(C)C)C(=O)N1)C(=O)N[C@@H](C)C(N)=O [compound 371] (Ac-AAF[R8]EYWAQL[S5]AA[Nle]A-NH2; staple 4-11) .
10 to 100 nM

Fill blank: measured Ki of the compound CCCC[C@H](NC(=O)[C@H](Cc1c[nH]c2ccccc12)NC(=O)[C@H](C)NC(=O)[C@]1(C)CCCC=CCCCCCC[C@@](C)(NC(=O)[C@H](Cc2ccccc2)NC(=O)[C@@H](NC(=O)[C@H](CCC(=O)O)NC(C)=O)[C@@H](C)O)C(=O)N[C@@H](C)C(=O)N[C@@H](Cc2ccc(O)cc2)C(=O)N[C@@H](Cc2c[nH]c3ccccc23)C(=O)N[C@@H](C)C(=O)N[C@@H](CCC(N)=O)C(=O)N[C@@H](CC2CCC2)C(=O)N1)C(=O)N[C@@H](C)C(N)=O [compound 240] (Ac-ETF[R8]AYWAQ[Cba][S5]AW[Nle]A-NH2; staple 4-11) is ____.
< 10 nM
